Would you kindly list YAP1 (% UT) for each of these substances?
tested on: Yap1 mRNA; assay: Antisense inhibition of human Yap1 in SNU-449 cells by modified oligonucleotides, single dose (Example 5, RTS36584); format: cell-based; settings: Table 46; Yap1 mRNA as percent of untreated control, SNU-449 cells, single dose
Strand notation (5' to 3'): a small letter for the sugar, then the base; units joined by * are phosphorothioate-linked, units joined directly phosphodiester-linked; [ ] holds rarer units or linkages, { } end groups; capitals alone tell only the bases. e = 2'-O-(2-methoxyethyl) (MOE); k = constrained ethyl (cEt); [5mC] = 5-methylcytosine; d = 2'-deoxy (DNA)
Please state the figure in % UT; there is no need to write the unit.

Query string: Query (substance): 1198869 (kA*kT*dG*dT*dA*dA*dT*dA*dT*dT*dG*k[5mC]*eA*kA*eT*k[5mC]; antisense) [Compound 1198869] ; field requested: YAP1 (% UT)
Result string: 49

Query string: What would you report for 1198850 (kA*kG*dA*dT*dT*dT*dA*dG*dG*dA*dT*kG*e[5mC]*kA*eT*kG; antisense) [Compound 1198850] ?
Result string: 33

Query string: What would you report for 1198828 (kT*kT*dT*dT*dA*d[5mC]*dA*dT*dT*dA*dG*kG*eA*kA*e[5mC]*kA; antisense) [Compound 1198828] ?
Result string: 59

Query string: What would you report for 1198827 (kT*kT*dA*d[5mC]*dA*dT*dT*dA*dG*dG*dA*kA*e[5mC]*kA*eA*kG; antisense) [Compound 1198827] ?
Result string: 60

Query string: What would you report for 1095425 (antisense kT*kG*dA*dG*dG*dT*dA*dT*dA*dA*d[5mC]*kT*eG*kG*eG*k[5mC]) [Compound 1095425] ?
Result string: 57

Query string: What would you report for 1198832 (kG*k[5mC]*dA*d[5mC]*dT*dT*dT*dT*dA*d[5mC]*dA*kT*eT*kA*eG*kG; antisense) [Compound 1198832] ?
Result string: 20

###

tested on: Yap1 mRNA; assay: Antisense inhibition of human Yap1 in A-431 cells by cEt gapmers, single dose (Example 1, RTS4814); assay type: cell-based; conditions: A-431 cells, 5,000 cells per well, free uptake, 2,000 nM modified oligonucleotide, approx. 48 hours, RTS4814, normalized to RIBOGREEN; Table 3
Strand notation (5' to 3'): a small letter for the sugar, then the base; units joined by * are phosphorothioate-linked, units joined directly phosphodiester-linked; [ ] holds rarer units or linkages, { } end groups; capitals alone tell only the bases. k = constrained ethyl (cEt); [5mC] = 5-methylcytosine; d = 2'-deoxy (DNA)
Would you kindly list YAP1 (% UTC) for each of these substances?
Please state the figure in % UTC; there is no need to write the unit.

Query string: Query (substance): 715621 (antisense kT*kA*kA*dA*dA*dA*dA*dT*dA*dA*dG*dA*d[5mC]*kG*kG*kA) [Compound 715621] ; field requested: YAP1 (% UTC)
Result string: 106

Query string: What would you report for 715450 (antisense kT*kT*kG*dT*dT*d[5mC]*dT*d[5mC]*dA*dA*dT*dT*d[5mC]*k[5mC]*kT*kG) [Compound 715450] ?
Result string: 53

Query string: What would you report for 715603 (antisense kG*k[5mC]*kA*d[5mC]*dA*dG*dA*dA*dT*dT*d[5mC]*d[5mC]*d[5mC]*kA*kA*kG) [Compound 715603] ?
Result string: 106

###

tested on: Yap1 mRNA; assay: Dose-dependent inhibition of human Yap1 in A-431 cells (Example 6, 5,000 cells per well, RTS4814); format: cell-based; details: Table 55; A-431 cells 5,000 cells per well, free uptake, RTS4814
Strand notation (5' to 3'): a small letter for the sugar, then the base; units joined by * are phosphorothioate-linked, units joined directly phosphodiester-linked; [ ] holds rarer units or linkages, { } end groups; capitals alone tell only the bases. k = constrained ethyl (cEt); [5mC] = 5-methylcytosine; d = 2'-deoxy (DNA)
Quantity Measured: pIC50
// returns pIC50 (minus log10 of molar concentration), number only

Query string: State its pIC50 on Yap1 mRNA: 716455 (antisense kG*kT*kT*dA*dT*dG*dT*dT*dT*dG*dG*dG*dT*kG*kT*kG) [compound 716455]
Result string: 5.92

Query string: What would you report for 716513 (antisense kA*kA*kT*d[5mC]*dT*dT*dA*dA*dT*d[5mC]*dT*dG*dT*kG*kG*k[5mC]) [compound 716513] ?
Result string: 5.85

Query string: What would you report for 716381 (kT*kG*kT*d[5mC]*dT*dG*dA*dT*d[5mC]*dG*dA*dT*dG*kT*kG*kA; antisense) [compound 716381] ?
Result string: 5.38

Query string: What would you report for 716407 (antisense k[5mC]*kT*kT*dA*dG*dT*d[5mC]*d[5mC]*dA*d[5mC]*dT*dG*dT*k[5mC]*kT*kG) [compound 716407] ?
Result string: 5.52

Query string: What would you report for 716419 (antisense kT*kT*kT*d[5mC]*d[5mC]*dG*dG*dT*dG*d[5mC]*dA*dT*dG*kT*kG*kT) [compound 716419] ?
Result string: 5.60

Query string: What would you report for 716438 (antisense kA*kT*kT*dT*dT*dT*dG*dG*d[5mC]*dT*dT*dG*dT*k[5mC]*kA*kG) [compound 716438] ?
Result string: 5.47

Query string: What would you report for 715478 (kA*k[5mC]*k[5mC]*dA*dT*dT*dA*dT*dT*dA*d[5mC]*dT*d[5mC]*k[5mC]*kT*kG; antisense) [compound 715478] ?
Result string: 6.22

Query string: What would you report for 716480 (antisense kG*k[5mC]*kA*dA*dG*dT*d[5mC]*dT*dT*dG*dT*dA*dA*kG*kT*kA) [compound 716480] ?
Result string: 6.00

###

System: Yap1 mRNA
Experiment: Antisense inhibition of human Yap1 in A-431 cells by cEt gapmers, single dose (Example 2, RTS4814)
Type: cell-based
Conditions: Yap1 mRNA as percent of untreated control; A-431 cells; 3-10-3 cEt gapmers targeting SEQ ID NO.: 1, and 2; Table 30
Protocol: Modified oligonucleotides were designed to target a Yap1 nucleic acid and were tested for their effect on Yap1 mRNA level in vitro. The modified oligonucleotides were tested in a series of experiments that had similar culture conditions. […] After a treatment period of approximately 48 hours, RNA was isolated from the cells and Yap1 mRNA levels were measured by quantitative real-time RTPCR. […] Yap1 mRNA levels were normalized to total RNA content, as measured by RIBOGREEN®. […]
Strand notation (5' to 3'): a small letter for the sugar, then the base; units joined by * are phosphorothioate-linked, units joined directly phosphodiester-linked; [ ] holds rarer units or linkages, { } end groups; capitals alone tell only the bases. k = constrained ethyl (cEt); [5mC] = 5-methylcytosine; d = 2'-deoxy (DNA)
Quantity Measured: YAP1 (% UTC)
Please state the figure in % UTC; there is no need to write the unit.

Query string: State its YAP1 (% UTC) on Yap1 mRNA: 1074544 (k[5mC]*kT*k[5mC]*d[5mC]*d[5mC]*d[5mC]*dT*dA*dG*dG*d[5mC]*dA*d[5mC]*kT*kA*kT; antisense) [compound 1074544]
Result string: 34

Query string: What would you report for 1075056 (antisense k[5mC]*kT*kT*dT*dA*dT*dT*dA*dT*d[5mC]*dT*d[5mC]*dA*kA*k[5mC]*k[5mC]) [compound 1075056] ?
Result string: 21

Query string: What would you report for 1075696 (kT*kT*kA*d[5mC]*dA*dA*dA*dA*dG*dT*dT*dA*d[5mC]*kT*kG*k[5mC]; antisense) [compound 1075696] ?
Result string: 28

Query string: What would you report for 1074448 (kT*kA*kA*dT*dG*dA*dT*dA*dG*d[5mC]*dA*d[5mC]*dT*kA*kG*kG; antisense) [compound 1074448] ?
Result string: 3

Query string: What would you report for 1074384 (kT*kT*k[5mC]*dA*dA*dG*dG*dT*dA*dG*dT*d[5mC]*dT*kG*kG*kG; antisense) [compound 1074384] ?
Result string: 35

Query string: What would you report for 1076176 (k[5mC]*kT*k[5mC]*d[5mC]*dA*dA*dT*dA*dG*dG*dT*dA*dA*k[5mC]*kA*kG; antisense) [compound 1076176] ?
Result string: 43

Query string: What would you report for 1075312 (antisense kT*kT*kA*dA*dT*dT*dG*dA*dA*d[5mC]*dT*d[5mC]*dA*kG*kG*kG) [compound 1075312] ?
Result string: 37

Query string: What would you report for 1074128 (k[5mC]*kT*k[5mC]*d[5mC]*dA*d[5mC]*dT*dG*dG*dT*d[5mC]*dT*dG*kG*k[5mC]*kG; antisense) [compound 1074128] ?
Result string: 76

Query string: What would you report for 1075888 (antisense kA*k[5mC]*kT*dT*dA*dA*dA*d[5mC]*dT*dT*dG*dA*dG*kG*kG*kA) [compound 1075888] ?
Result string: 22

Query string: What would you report for 1074576 (DNA kA*kT*kG*d[5mC]*dA*d[5mC]*dA*dT*dT*dA*dT*dG*dA*kA*k[5mC]*k[5mC]) [compound 1074576] ?
Result string: 7

Query string: What would you report for 1076240 (kA*kT*kT*dA*dA*dA*dA*dG*d[5mC]*dA*dA*dG*dG*kT*kG*k[5mC]; antisense) [compound 1076240] ?
Result string: 56

Query string: What would you report for 1076016 (kT*kA*kA*dT*dA*dG*dG*dA*dT*dG*dG*dA*dT*kT*k[5mC]*kT; antisense) [compound 1076016] ?
Result string: 8

Query string: What would you report for 1074672 (antisense k[5mC]*k[5mC]*kA*dA*dG*dT*dA*dG*d[5mC]*dT*dT*dT*dG*kA*kT*k[5mC]) [compound 1074672] ?
Result string: 6

Query string: What would you report for 1075440 (antisense kA*kA*kA*dT*dT*dA*dT*dT*dA*dG*dT*dT*dG*kT*k[5mC]*kG) [compound 1075440] ?
Result string: 28

Query string: What would you report for 1074160 (kG*k[5mC]*kG*dA*dG*d[5mC]*dG*dA*dG*dG*dG*d[5mC]*dT*kA*k[5mC]*kG; antisense) [compound 1074160] ?
Result string: 86

Query string: What would you report for 1075824 (kG*kT*kA*dT*dT*dA*dG*dA*dG*dG*dT*dT*d[5mC]*k[5mC]*kA*kG; antisense) [compound 1075824] ?
Result string: 3

Query string: What would you report for 1075280 (antisense kG*kA*kA*d[5mC]*dT*dA*dT*dA*d[5mC]*dT*dA*dA*d[5mC]*kA*kT*kT) [compound 1075280] ?
Result string: 57

Query string: What would you report for 1074608 (DNA kG*kT*kT*dA*d[5mC]*dA*dT*d[5mC]*dA*dT*d[5mC]*dT*d[5mC]*kT*kT*k[5mC]) [compound 1074608] ?
Result string: 5

Query string: What would you report for 1074320 (antisense kG*kG*k[5mC]*dT*dA*dA*d[5mC]*dT*d[5mC]*d[5mC]*dT*dG*dA*k[5mC]*kA*kT) [compound 1074320] ?
Result string: 80

Query string: What would you report for 1075472 (kG*kA*kT*dT*dA*dT*dA*dG*dT*dT*dA*dA*dA*k[5mC]*kA*kG; antisense) [compound 1075472] ?
Result string: 92

Query string: What would you report for 1075408 (antisense k[5mC]*kT*kA*dA*dA*dA*dT*dG*dG*d[5mC]*dA*dT*dA*kA*kG*kG) [compound 1075408] ?
Result string: 23

Query string: What would you report for 1075152 (kT*kA*kT*dA*dA*dT*dG*dG*dG*dA*dG*dG*dA*kT*kT*kA; antisense) [compound 1075152] ?
Result string: 99

Query string: What would you report for 1074960 (antisense k[5mC]*kT*kT*dA*dA*d[5mC]*d[5mC]*d[5mC]*dG*dG*dG*dT*dT*kT*kT*kT) [compound 1074960] ?
Result string: 81

Query string: What would you report for 1076560 (kT*k[5mC]*k[5mC]*dA*dA*dA*dT*dA*dT*dG*dG*d[5mC]*dA*kT*kA*k[5mC]; antisense) [compound 1076560] ?
Result string: 10

Query string: What would you report for 1076336 (antisense k[5mC]*kA*kT*dT*dA*d[5mC]*d[5mC]*dA*d[5mC]*d[5mC]*dT*dA*dT*kA*kA*kG) [compound 1076336] ?
Result string: 31
